Value source: patent US20180185504A1

# System name: T1, mfPRLR.mmh (soluble monomeric macaca fascicularis PRLR) (macaca fascicularis)
# T1 construct: soluble monomeric PRLR protein; also called macaca fascicularis (mf) PRLR.mmh; monkey PRLR
# T1 chain: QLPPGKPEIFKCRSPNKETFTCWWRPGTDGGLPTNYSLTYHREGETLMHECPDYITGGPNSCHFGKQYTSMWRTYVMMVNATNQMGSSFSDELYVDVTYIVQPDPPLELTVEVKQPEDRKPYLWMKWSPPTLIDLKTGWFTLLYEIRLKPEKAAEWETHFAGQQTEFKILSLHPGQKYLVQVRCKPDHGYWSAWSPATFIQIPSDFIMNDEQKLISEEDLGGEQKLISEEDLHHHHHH
# Experiment notes: SPR (Biacore), antibody capture, 37 C
We label by threshold. Values of Kd strictly beneath 2 nM are t. Values of 2 nM and up are f.

Answered examples (4):
* H1H6966N (antibody, human IgG1, V domains shown, also called H2M6966N) VH: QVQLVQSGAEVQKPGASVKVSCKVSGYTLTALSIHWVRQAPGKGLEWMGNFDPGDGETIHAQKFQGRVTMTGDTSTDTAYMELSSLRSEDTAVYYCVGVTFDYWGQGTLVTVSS VL: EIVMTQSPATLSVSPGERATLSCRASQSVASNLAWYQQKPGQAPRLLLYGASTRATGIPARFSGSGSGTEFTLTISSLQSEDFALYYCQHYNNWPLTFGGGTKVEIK | t
* H1H6790P (antibody, human IgG1, V domains shown, human IgG1 Fc (H1H)) VH: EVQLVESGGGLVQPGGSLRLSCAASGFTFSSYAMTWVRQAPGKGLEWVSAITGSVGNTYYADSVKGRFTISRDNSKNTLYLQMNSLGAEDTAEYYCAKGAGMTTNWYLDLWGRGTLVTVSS VL: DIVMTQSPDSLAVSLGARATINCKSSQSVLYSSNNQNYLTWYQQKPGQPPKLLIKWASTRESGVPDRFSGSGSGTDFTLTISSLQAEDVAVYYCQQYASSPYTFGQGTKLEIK | f
* H1H6976N (antibody, human IgG1, V domains shown, also called H2M6976N) VH: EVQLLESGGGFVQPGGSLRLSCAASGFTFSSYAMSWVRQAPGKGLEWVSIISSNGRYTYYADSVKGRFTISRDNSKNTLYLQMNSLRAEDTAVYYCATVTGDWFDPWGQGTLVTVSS VL: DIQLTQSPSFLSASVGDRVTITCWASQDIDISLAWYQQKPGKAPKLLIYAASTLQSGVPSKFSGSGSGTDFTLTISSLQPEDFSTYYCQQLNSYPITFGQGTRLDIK | f
* H1H6800P (antibody, human IgG1, V domains shown, human IgG1 Fc (H1H)) VH: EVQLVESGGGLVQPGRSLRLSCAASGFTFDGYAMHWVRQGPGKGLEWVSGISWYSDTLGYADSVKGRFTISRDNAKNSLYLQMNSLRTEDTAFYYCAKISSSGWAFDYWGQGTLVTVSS VL: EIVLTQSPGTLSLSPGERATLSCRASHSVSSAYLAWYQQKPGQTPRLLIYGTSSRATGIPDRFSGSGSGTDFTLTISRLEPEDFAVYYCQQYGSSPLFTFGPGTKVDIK | f

Hello, I'm reviewing records and need to know if Kd of H1H6797P (antibody, human IgG1, V domains shown, human IgG1 Fc (H1H)) VH: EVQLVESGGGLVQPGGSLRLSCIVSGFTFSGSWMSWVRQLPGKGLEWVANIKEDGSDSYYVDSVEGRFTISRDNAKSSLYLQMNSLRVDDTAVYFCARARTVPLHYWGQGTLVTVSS VL: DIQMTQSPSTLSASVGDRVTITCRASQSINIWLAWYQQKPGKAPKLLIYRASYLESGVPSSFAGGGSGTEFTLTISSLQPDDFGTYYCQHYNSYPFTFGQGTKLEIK is below 2 nM. Could you check?
f
